# MEASUREMENT TARGET: cathepsin D isolated from the human liver (Homo sapiens, UniProt P07339)
# Construct: cathepsin D isolated from the human liver (Sigma-Aldrich); purchased Sigma-Aldrich; host or cells: human liver (tissue-derived, not recombinant)
# Sequence (P07339 65-161 limits assumed): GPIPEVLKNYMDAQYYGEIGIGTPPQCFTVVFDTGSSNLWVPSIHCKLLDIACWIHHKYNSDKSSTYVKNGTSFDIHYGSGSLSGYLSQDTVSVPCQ
# Sequence (P07339 169-412 limits assumed): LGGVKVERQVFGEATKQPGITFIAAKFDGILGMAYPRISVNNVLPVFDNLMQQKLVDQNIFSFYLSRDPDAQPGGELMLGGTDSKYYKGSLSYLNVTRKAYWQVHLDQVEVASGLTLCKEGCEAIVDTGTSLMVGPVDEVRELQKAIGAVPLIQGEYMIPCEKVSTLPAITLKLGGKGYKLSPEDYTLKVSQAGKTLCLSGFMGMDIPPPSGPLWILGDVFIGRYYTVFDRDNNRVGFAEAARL
# EXPERIMENTAL DETAILS: In-vitro fluorescence assay for identification of cathepsin D inhibitors
# Assay type: biochemical
# CONDITION SET: human liver cathepsin D 1.4 nM, pH 5.5; read-out: CatD assay IC50-(M)
QUANTITY MEASURED: IC50 (M)
Report only the number, with the unit M understood.

Use the examples below as a reference point.
smiles_record=CC[C@H](C)[C@H](NC(=O)C[C@H](O)[C@H](Cc1ccccc1)NC(=O)[C@@H](NC(=O)[C@@H](O)c1ccccc1)C(C)C)C(=O)N[C@H](C(=O)OCc1ccccc1)C(C)C unit_text=M value_reported=5.8e-07
smiles_record=CC[C@H](C)[C@H](NC(=O)C[C@H](O)[C@H](Cc1ccccc1)NC(=O)[C@@H](NC(=O)C(c1ccccc1)c1ccccc1)C(C)C)C(=O)N[C@H](C(=O)OCc1ccccc1)C(C)C unit_text=M value_reported=3.2e-07
smiles_record=CC[C@H](C)[C@H](NC(=O)C[C@H](O)[C@H](Cc1ccccc1)NC(=O)[C@@H](NC(=O)Cc1cccc(OC)c1)C(C)C)C(=O)N[C@H](C(=O)OCc1ccccc1)C(C)C unit_text=M value_reported=2.5e-08
smiles_record=CCOc1cccc(CC(=O)N[C@H](C(=O)N[C@@H](Cc2ccccc2)[C@@H](O)CC(=O)N[C@H](C(=O)N[C@H](C(=O)OCc2ccccc2)C(C)C)[C@@H](C)CC)[C@@H](C)CC)c1 unit_text=M value_reported=2.7e-07

# input compound: CC[C@H](C)[C@H](NC(=O)C[C@H](O)[C@H](Cc1ccccc1)NC(=O)[C@@H](NC(=O)Cc1ccccc1OC)C(C)C)C(=O)N[C@H](C(=O)OCc1ccccc1)C(C)C ; wanted: its IC50
2.1e-07

###

# MEASUREMENT TARGET: cathepsin D isolated from the human liver (Homo sapiens, UniProt P07339)
# Construct: cathepsin D isolated from the human liver (Sigma-Aldrich); purchased Sigma-Aldrich; host or cells: human liver (tissue-derived, not recombinant)
# EXPERIMENTAL DETAILS: In-vitro fluorescence assay for identification of cathepsin D inhibitors
# Type: biochemical
# CONDITION SET: human liver cathepsin D 1.4 nM, pH 5.5; read-out: CatD assay IC50-(M)
*1 amine or outer side, *2 acyl side, *3 side chain or, on linkers, in order; H or OH if unused. Where a SMILES comes first, the peptide text is derived from it. [ ]: non-standard residue; d: D form. The star is where a group is joined. Ahppa(3S,4S) = O=C(C[C@H](O)[C@H](Cc1ccccc1)N[*:1])[*:2]; Isovaleryl = CC(C)CC(=O)*
IC50 listing for selected compounds.
Report only the number, with the unit M understood.

Use the examples below as a reference point.
compound="CC[C@H](C)[C@H](NC(=O)C[C@H](O)[C@H](Cc1ccccc1)NC(=O)[C@@H](NC(=O)C(C)(C)Oc1ccc2ccccc2c1)C(C)C)C(=O)N[C@H](C(=O)O)C(C)C [Compound 6]" quantity_measured=IC50 value_reported=2.3e-07
compound="CC[C@H](C)[C@H](NC(=O)C[C@H](O)[C@H](Cc1ccccc1)NC(=O)[C@@H](NC(=O)c1cccc(-c2ccccc2)c1)C(C)C)C(=O)N[C@H](C(=O)OCc1ccccc1)C(C)C [Compound 23]" quantity_measured=IC50 value_reported=1.2e-05
compound="CC[C@H](C)[C@H](NC(=O)C[C@H](O)[C@H](Cc1ccccc1)NC(=O)[C@@H](NC(=O)[C@H](CC(C)C)NC(=O)CC(C)C)C(C)C)C(=O)N[C@H](C(=O)O)C(C)C [Compound 8] (Isovaleryl-LV[Ahppa(3S,4S)]IV-OH)" quantity_measured=IC50 value_reported=3e-09

# input compound: CC[C@H](C)[C@H](NC(=O)C[C@H](O)[C@H](Cc1ccccc1)NC(=O)[C@@H](NC(=O)c1cccc(OC(C)(C)C)c1)C(C)C)C(=O)N[C@H](C(=O)O)C(C)C [Compound 26] ; wanted: its IC50
1.2e-07

# input compound: CC[C@H](C)[C@H](NC(=O)C[C@H](O)[C@H](Cc1ccccc1)NC(=O)[C@@H](NC(=O)c1cccc(-c2ccccc2)c1)C(C)C)C(=O)N[C@H](C(=O)O)C(C)C [Compound 31] ; wanted: its IC50
1.6e-07

# input compound: CC[C@H](C)[C@H](NC(=O)C[C@H](O)[C@H](Cc1ccccc1)NC(=O)[C@@H](NC(=O)CCc1ccccc1)C(C)C)C(=O)N[C@H](C(=O)O)C(C)C [Compound 4] ; wanted: its IC50
3e-08

# input compound: CC[C@H](C)[C@H](NC(=O)C[C@H](O)[C@H](Cc1ccccc1)NC(=O)[C@@H](NC(=O)Cc1cc(OC(F)(F)F)ccc1OC)C(C)C)C(=O)N[C@H](C(=O)O)C(C)C [Compound 24] ; wanted: its IC50
1.1e-08

# input compound: CCC(CC)NC(=O)[C@@H](NC(=O)C[C@H](O)[C@H](Cc1ccccc1)NC(=O)[C@@H](NC(=O)[C@H](CC(C)C)NC(=O)Cc1ccccc1)C(C)C)[C@@H](C)CC [Compound 43] ; wanted: its IC50
3.5e-09

# input compound: CCOc1cccc(CC(=O)N[C@H](C(=O)N[C@@H](Cc2ccccc2)[C@@H](O)CC(=O)N[C@H](C(=O)N[C@H](C(=O)OCc2ccccc2)C(C)C)[C@@H](C)CC)C(C)C)c1 [Compound 12] ; wanted: its IC50
2.5e-08

# input compound: CCOc1cccc(CC(=O)N[C@H](C(=O)N[C@@H](Cc2ccccc2)[C@@H](O)CC(=O)N[C@H](C(=O)N[C@H](C(=O)O)C(C)C)[C@@H](C)CC)[C@@H](C)CC)c1 [Compound 36] ; wanted: its IC50
4.3e-08
